EXPERIMENTAL_SYSTEM: Nav1.7 (or SCN9A) channel; HEK cells stably transfected with hSCN9A (Homo sapiens, UniProt Q15858)
Construct: expressed in transfected cells
Sequence (Q15858 whole entry): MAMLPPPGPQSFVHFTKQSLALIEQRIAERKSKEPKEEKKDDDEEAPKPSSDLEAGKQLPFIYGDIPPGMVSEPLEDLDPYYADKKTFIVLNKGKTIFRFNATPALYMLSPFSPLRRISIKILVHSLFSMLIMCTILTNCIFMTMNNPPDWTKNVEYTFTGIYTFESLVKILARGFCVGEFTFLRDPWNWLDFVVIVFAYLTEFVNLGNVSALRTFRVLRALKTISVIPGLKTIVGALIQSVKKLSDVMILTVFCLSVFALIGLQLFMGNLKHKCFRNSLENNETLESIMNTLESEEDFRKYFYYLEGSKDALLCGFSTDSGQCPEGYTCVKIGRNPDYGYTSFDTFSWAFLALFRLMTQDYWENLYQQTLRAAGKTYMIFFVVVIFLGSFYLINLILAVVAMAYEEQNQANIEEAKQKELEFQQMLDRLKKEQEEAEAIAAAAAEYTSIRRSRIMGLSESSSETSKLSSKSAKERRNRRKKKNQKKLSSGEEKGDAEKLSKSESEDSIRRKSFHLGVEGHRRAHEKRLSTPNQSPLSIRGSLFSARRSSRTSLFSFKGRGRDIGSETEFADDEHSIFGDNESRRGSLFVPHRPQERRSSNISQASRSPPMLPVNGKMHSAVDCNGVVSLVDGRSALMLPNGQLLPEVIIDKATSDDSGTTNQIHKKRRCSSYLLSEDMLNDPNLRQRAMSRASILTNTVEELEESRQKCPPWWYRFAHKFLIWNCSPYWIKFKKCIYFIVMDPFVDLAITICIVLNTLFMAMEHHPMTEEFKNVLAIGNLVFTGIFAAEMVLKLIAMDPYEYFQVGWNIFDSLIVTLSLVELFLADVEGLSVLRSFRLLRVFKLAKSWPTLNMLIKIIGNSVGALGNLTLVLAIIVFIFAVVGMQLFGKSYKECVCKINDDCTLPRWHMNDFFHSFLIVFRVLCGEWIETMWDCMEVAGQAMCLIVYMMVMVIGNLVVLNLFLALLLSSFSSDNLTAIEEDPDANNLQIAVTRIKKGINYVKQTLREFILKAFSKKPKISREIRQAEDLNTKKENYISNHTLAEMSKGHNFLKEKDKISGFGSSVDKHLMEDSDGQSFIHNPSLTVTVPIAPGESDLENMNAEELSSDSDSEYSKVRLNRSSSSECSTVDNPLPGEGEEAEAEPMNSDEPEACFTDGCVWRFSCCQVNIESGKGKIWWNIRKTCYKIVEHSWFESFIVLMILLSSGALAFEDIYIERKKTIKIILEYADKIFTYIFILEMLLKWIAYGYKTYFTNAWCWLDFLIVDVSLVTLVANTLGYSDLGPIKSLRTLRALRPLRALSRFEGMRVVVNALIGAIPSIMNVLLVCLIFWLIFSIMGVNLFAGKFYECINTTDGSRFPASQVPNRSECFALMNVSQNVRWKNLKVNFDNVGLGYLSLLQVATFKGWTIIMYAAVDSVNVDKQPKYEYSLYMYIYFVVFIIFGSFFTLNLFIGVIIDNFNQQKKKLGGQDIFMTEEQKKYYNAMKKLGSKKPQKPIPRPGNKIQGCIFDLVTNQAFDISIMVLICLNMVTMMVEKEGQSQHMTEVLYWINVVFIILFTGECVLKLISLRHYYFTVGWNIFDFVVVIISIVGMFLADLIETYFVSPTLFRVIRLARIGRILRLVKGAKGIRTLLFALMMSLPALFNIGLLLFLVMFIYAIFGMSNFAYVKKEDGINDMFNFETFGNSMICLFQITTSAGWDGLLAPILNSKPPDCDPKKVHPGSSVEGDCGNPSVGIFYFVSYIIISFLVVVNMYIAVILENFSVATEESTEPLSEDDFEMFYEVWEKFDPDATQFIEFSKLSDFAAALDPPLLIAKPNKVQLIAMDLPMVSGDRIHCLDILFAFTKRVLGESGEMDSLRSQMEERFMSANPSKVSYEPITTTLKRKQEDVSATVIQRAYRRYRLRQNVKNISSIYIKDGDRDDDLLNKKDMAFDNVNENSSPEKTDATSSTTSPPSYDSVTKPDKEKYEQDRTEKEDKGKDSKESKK
TEST_PROTOCOL: Nav1.7 block, PatchXpress 7000 automated whole-cell voltage clamp, estimated IC50 (EIC50)
Type: cell-based
CONDITION_SUMMARY: estimated IC50; hSCN9A HEK cells, PatchXpress platform; Examples 283-814
Lab note: anything with IC50 below 400 nM is marked MET; values at 400 nM or higher are marked NOT MET.

SMILES_TEXT	CLASS_ASSIGNMENT
N#Cc1cc(S(=O)(=O)Nc2nccs2)ccc1Oc1cccc(-n2cccn2)c1	NOT MET
N#Cc1cc(S(=O)(=O)Nc2ncccc2F)ccc1Oc1ccccc1-c1ccccc1	NOT MET
Cc1cnc(NS(=O)(=O)c2ccc(Oc3ccccc3-c3ccccc3)c(C#N)c2)nc1	NOT MET
COc1cccc(-c2ccc(Oc3ccc(S(=O)(=O)Nc4nccs4)cc3C#N)cc2)n1	NOT MET
N#Cc1cc(S(=O)(=O)Nc2nccs2)ccc1Oc1ccc(-n2ccc(C(F)(F)F)n2)c(Cl)c1	MET
O=S(=O)(Nc1nncs1)c1cc(F)c(Oc2ccc(Cl)cc2-c2ccn[nH]2)cc1F	MET
Cc1nsc(NS(=O)(=O)c2ccc(Oc3ccc(Cl)cc3-c3ccnn3C)c(F)c2)n1	NOT MET
O=S(=O)(Nc1cscn1)c1cc(F)c(Oc2ccc(OC(F)(F)F)cc2-c2cn[nH]c2)cc1F	MET
Cn1nccc1-c1cc(Cl)ccc1Oc1ccc(S(=O)(=O)Nc2ccncn2)cc1Cl	MET
Nc1[nH]ncc1-c1cc(Cl)ccc1Oc1cc(F)c(S(=O)(=O)Nc2ncc(Cl)s2)cc1F	MET
Cc1ncsc1-c1cc(Cl)ccc1Oc1ccc(S(=O)(=O)Nc2nccs2)cc1C#N	MET
CCn1nc(C(F)(F)F)cc1-c1cccc(Oc2ccc(S(=O)(=O)Nc3ccc(F)cn3)cc2C#N)c1	NOT MET
N#Cc1cc(S(=O)(=O)Nc2ncns2)ccc1Oc1cc(F)c(Cl)cc1-c1ccn[nH]1	MET
N#Cc1cc(S(=O)(=O)Nc2ncc(Cl)s2)ccc1Oc1ccc(F)cc1-c1ccnc(N)c1	MET
COc1cc(Oc2ccc(S(=O)(=O)Nc3ccc(F)cn3)cc2C#N)ccc1-n1ccnc1C	NOT MET
CC(C)(C)n1ccc(-c2cc(F)ccc2Oc2cc(F)c(S(=O)(=O)Nc3cscn3)cc2Cl)n1	NOT MET
CC(C)(C)n1nc(C(F)(F)F)cc1-c1ccc(Oc2ccc(S(=O)(=O)Nc3nccs3)c(F)c2)cc1	NOT MET
Cc1cc(-c2cccc(Oc3ccc(S(=O)(=O)Nc4nccs4)cc3C#N)c2)n(CCN(C)C)n1	NOT MET
N#Cc1cc(S(=O)(=O)Nc2nccs2)ccc1Oc1ccc(-c2ncccc2C(F)(F)F)cc1	NOT MET
O=S(=O)(Nc1ccc(F)cn1)c1cc(F)c(Oc2ccc(Cl)cc2C2CCNCC2)cc1F	MET
N#Cc1cc(S(=O)(=O)Nc2ncc(F)s2)ccc1Oc1ccc(CCCO)cc1-c1cn[nH]c1	MET
Cn1nccc1-c1cc(Cl)ccc1Oc1ccc(S(=O)(=O)Nc2ncc(F)cc2F)cc1F	NOT MET
N#Cc1cc(S(=O)(=O)Nc2ncc(Cl)s2)ccc1Oc1ccc(Cl)cc1-c1ccnn1C(F)F	MET
Cn1nccc1-c1cc(Oc2ccc(S(=O)(=O)Nc3nccs3)cc2C#N)ccc1Cl	NOT MET
COc1cc(Oc2ccc(S(=O)(=O)Nc3ccc(F)cn3)cc2C#N)ccc1-n1cccn1	NOT MET
Cn1nccc1-c1cc(Cl)ccc1Oc1ccc(S(=O)(=O)Nc2ccc(C(F)(F)F)cn2)cc1C#N	NOT MET
CCn1nc(C(F)(F)F)cc1-c1cccc(Oc2ccc(S(=O)(=O)Nc3ncc(F)s3)cc2C#N)c1	MET
Cn1nccc1-c1cc(Cl)ccc1Oc1ccc(S(=O)(=O)Nc2ccncn2)cc1C#N	NOT MET
N#Cc1cc(S(=O)(=O)Nc2cscn2)ccc1Oc1cccc(Cc2cc[nH]n2)c1	NOT MET
N#Cc1cc(S(=O)(=O)Nc2nccs2)ccc1Oc1ccc(-n2ccc(C3CC3)n2)cc1	NOT MET
